Where do these numbers come from? They come from ChEMBL document CHEMBL6083254.

// values below are reported Activity
Test system: Plasmodium yoelii
Experiment: Antiplasmodial activity against asexual erythrocytic stage of Plasmodium yoelii infected in female CFI mouse model assessed as reduction in parasitemia at 25 mg/kg, po administered once daily for 4 days and measured on day 5 by Giemsa staining based microscopic analysis relative to control
Type: functional
Design: scale not given: the % may be the effect or the level left
Conditions: time 5 day
MEASUREMENT LABEL: Activity (%)

SMILES TEXT | READING
CCCCCCCCCCCc1ccc(/C=C2\N=C(c3ccc[nH]3)C=C2OC(C)C)[nH]1.Cl | 100
CCCCCCCCCCCCN/C=C1\N=C(c2ccc[nH]2)C=C1OCC.Cl | 0
CC(C)CN/C=C1\N=C(c2ccc[nH]2)C=C1OC(C)C.Cl | 0
